Tested on: S.aureus ATCC 25923
Test: MIC by agar incorporation method, S.aureus 25923
Format: cell-based, Staphylococus aureus
Parameters: unit not given here
Conditions: Mueller Hinton agar, 10^4 CFU/spot, 18 hours
ENDPOINT_LABEL: In Vitro (MIC) S.aureus 25923

                                   compound          measured_on                 endpoint_label  reported_measurement
0  CC(=O)NC[C@H]1CN(c2ccc(N3CCC(N(C)Cc4ccc([N+](=O)[O-])s4)C3)c(F)c2)C(=O)O1 (stereo partly shown) [Compound No. 90]  S.aureus ATCC 25923  In Vitro (MIC) S.aureus 25923                     4
1  O=C(CCl)NC[C@H]1CN(c2ccc(N3CCN(Cc4ccc([N+](=O)[O-])s4)CC3)c(F)c2)C(=O)O1 [Compound No. 47]  S.aureus ATCC 25923  In Vitro (MIC) S.aureus 25923                     4
2  CC(=O)NC[C@H]1CN(c2ccc(N3CCN(Cc4ccc([N+](=O)[O-])o4)CC3C)c(F)c2)C(=O)O1 (stereo partly shown) [Compound No. 58]  S.aureus ATCC 25923  In Vitro (MIC) S.aureus 25923                     4

(1) CCN(Cc1ccc([N+](=O)[O-])s1)C1CCN(c2ccc(N3C[C@H](CNC(C)=O)OC3=O)cc2F)CC1 [Compound No. 83]
(2) CC(=O)NC[C@H]1CN(c2ccc(N3CCN(Cc4cc([N+](=O)[O-])cs4)CC3)c(F)c2)C(=O)O1 [Compound No. 14]
(3) CC(=O)NC[C@H]1CN(c2ccc(N3CCCN(C(=O)c4ccc([N+](=O)[O-])o4)CC3)c(F)c2)C(=O)O1 [Compound No. 55]
Prompt: Put the entries in order of In Vitro (MIC) S.aureus 25923, starting with the largest number. Put the labels in the order asked and list them.
Response: 1, 3, 2
